Reported cytotoxicity at 10 µM values follow for various molecules
Assay: Toxicity liver stage against HepG2, at 10uM
Type: cell-based
Parameters: test concentration 10 uM, cell line HepG2-A16-CD81EGFP
Conditions: human, HepG2-A16-CD81EGFP cells; read-out: INHIBITION
measure: cytotoxicity at 10 µM (%)

molecule=CCN(CC(=O)N(C)C)C(=O)c1cc(-c2cccc(Cl)c2)no1 numeric_readout=6.17
molecule="Cc1ccc(CC(=O)NCC(O)c2cccc(C(F)(F)F)c2)cn1 (stereo unspecified)" numeric_readout=-18.6
molecule="CC(C)(C)c1nc(CN(Cc2cccs2)CC2CCCO2)no1 (stereo unspecified)" numeric_readout=-10
molecule="Cc1cc(C(C)NC(=O)N2CCC(n3cncn3)CC2)c(C)s1 (stereo unspecified)" numeric_readout=-15.9
molecule="CC(C)=CCC1(C(=O)O)CCCN(c2ccnc(N)n2)C1 (stereo unspecified)" numeric_readout=-13.7
molecule="COc1cccc(CCC2CCCN(C(C)=O)C2)c1 (stereo unspecified)" numeric_readout=-15.9
molecule=N#Cc1cccc(CN2CCO[C@@H]3CNC[C@@H]32)c1 numeric_readout=8.94
molecule=O=C(C1CCOCC1)N1CCC(O)(Cn2ccc3ccncc32)CC1 numeric_readout=-19.8
molecule=Cc1nnsc1CN1C[C@H]2CC[C@@H](C1)N(Cc1c(C)noc1C)C2=O numeric_readout=-4.56
molecule="COc1cccc(CN(C(=O)NC2CC2)C2CCC(O)CC2)c1 (stereo unspecified)" numeric_readout=6.8
molecule=OCCN1CCN(Cc2cnc3c(-c4ccccc4)cnn3c2)CC1 numeric_readout=-2.72

* * *

Test: Toxicity liver stage against HepG2, at 10uM
Format: cell-based
Design: test concentration 10 uM, cell line HepG2-A16-CD81EGFP
Conditions: human, HepG2-A16-CD81EGFP cells; read-out: INHIBITION
measure: cytotoxicity at 10 µM

compound="O=C(c1ccc(-n2ccnc2)nc1)N1CCCC(n2cccn2)C1 (configuration not stated)" result=-5.13%
compound="CCCS(=O)(=O)c1ncc(CN2CCC(C)CC2)n1CC1CCCO1 (configuration not stated)" result=-5.12%
compound="CCOc1ncccc1C(=O)N1CCCCC1c1nccs1 (configuration not stated)" result=-8.7%
compound=CCCOc1ccc(C(=O)N[C@@H]2CCNC[C@H]2O)cc1Cl result=-10.4%
compound="Cc1nn(C)c(C)c1C1CCCN1CC(=O)Nc1ccc(Cl)cn1 (configuration not stated)" result=-7.1%
compound=Cc1ccccc1CN(Cc1ccccn1)C(=O)CN(C)C(C)C result=-0.675%
compound="COc1ccc(NC(=O)N2CCCC2c2ccncc2)cn1 (configuration not stated)" result=0.165%
compound=CCN(CC)C(=O)CCc1nc(-c2cnn3c(C)cc(C)nc23)no1 result=-11.5%
compound="CC(CCN1CCOCC1)NC(=O)c1cccc(C(F)(F)F)c1F (configuration not stated)" result=-44.8%
compound="CCC(NC(=O)c1cnc(-c2cccnc2)nc1)c1ccnn1C (configuration not stated)" result=-2.11%
compound="CCCC(=O)N1Cc2ccccc2CC2(CCN(C)C2)C1 (configuration not stated)" result=2.71%
compound=Cc1ccc(C(=O)CN2C(=O)c3ccccc3CS2(=O)=O)c(C)c1 result=17.6%

* * *

Test: Toxicity liver stage against HepG2, at 10uM
Type: cell-based
Set-up: test concentration 10 uM, cell line HepG2-A16-CD81EGFP
Details: human, HepG2-A16-CD81EGFP cells; read-out: INHIBITION
Reported cytotoxicity at 10 µM values follow for various compounds
measure: cytotoxicity at 10 µM (%)

compound=COCCn1ccnc1C1CCN(C(=O)CSc2nnc(C)o2)CC1 numeric_readout=-11.5
compound=CNC(=O)[C@@H](C1CCCCC1)N1CCC[C@H]1C(=O)N(C)CCN(C)C numeric_readout=-0.39
compound="CCN(Cc1cn(CC2CCNCC2)nn1)CC1CCCO1 (stereo not given)" numeric_readout=-1.77
compound="CC(C)COCCCNC(=O)NCC(O)c1cccc(F)c1 (stereo not given)" numeric_readout=-3.1
compound=Cc1nnc(NCC2(c3ccc(Cl)cc3Cl)CCOCC2)c(C#N)c1C numeric_readout=1.98
compound=CCn1cc(CNC(=O)C(C)C)cn1 numeric_readout=7.74
compound=Cn1cc(C(=O)O)c(-c2ccc(F)cc2F)n1 numeric_readout=-4.03
compound=Cn1ncc2c1CCCN(C(=O)C1CC1)C2 numeric_readout=-8.27
compound=CCc1cccc(N2CCC(NC(=O)CCNC(N)=O)CC2)c1 numeric_readout=-12.5
compound=CCCNS(=O)(=O)c1cc2c3c(c1)c(C)cc(=O)n3CCC2 numeric_readout=3.94
compound="CCN1CCC(N2CCC(c3nc(C)cc(C)n3)C2)CC1 (stereo not given)" numeric_readout=5.15
compound="CCC(CCNCc1cnc(C2CCC2)s1)N1CCCC1=O (stereo not given)" numeric_readout=-3.13
compound=CCOC(=O)N1CCN(Cc2ccc(OCc3nccn3C)cc2)CC1 numeric_readout=-9.34
compound=CS(=O)(=O)c1ccc(CNC(=O)Nc2cn[nH]c2)cc1 numeric_readout=-1.88
compound=COCC(=O)N1CCN(CC2CC2)c2ncccc2C1 numeric_readout=-100
compound=CN1CCN(C(=O)[C@@H]2CC[C@@H]3[C@@H](CCN3c3ncccn3)O2)CC1 numeric_readout=7.13
compound="NC(=O)C1(CCCc2ccncc2)CCCN1 (stereo not given)" numeric_readout=-21.5
compound=Cc1ccc(NC(=O)N(C)Cc2cnn(C)c2)c(C)c1 numeric_readout=-10.7
compound="CCCN(CC1CC1)C(=O)CN1CCCC1c1cnn(C)c1 (stereo not given)" numeric_readout=2.45
compound="COCc1cnc2n1CCN(Cc1cccnc1)C2C (stereo not given)" numeric_readout=-8.79
compound=Cc1ccc(C(=O)NS(C)(=O)=O)cc1S(C)(=O)=O numeric_readout=4
compound=Cc1ccc(O[C@@H]2C[C@H]3CN(C(=O)Cc4ccccn4)CCN3C2)cc1 numeric_readout=-59
compound=Cc1cccc(N2CCCN=C2NC(=O)c2cccc(Cl)c2)c1 numeric_readout=6.39
compound="COCc1cc(O)nc(C2CCCN(Cc3cccc(Cl)c3Cl)C2)n1 (stereo not given)" numeric_readout=-7.47
compound="Cc1noc(C)c1CN1CCCCC1CCc1ccc(O)cc1 (stereo not given)" numeric_readout=-2.06

* * *

Experiment: Toxicity liver stage against HepG2, at 10uM
Assay type: cell-based
Design: test concentration 10 uM, cell line HepG2-A16-CD81EGFP
Conditions: human, HepG2-A16-CD81EGFP cells; read-out: INHIBITION
measure: cytotoxicity at 10 µM (%)

compound=Cn1cc(C(=O)N2CCC(c3nccn3Cc3ccncc3)CC2)cn1 measure="cytotoxicity at 10 µM" numeric_readout=-0.658
compound=O=C(Cc1ccc2c(c1)OCC2)Nc1nc[nH]n1 measure="cytotoxicity at 10 µM" numeric_readout=-2.94
compound=COc1ccc([C@@H]2CN(C(=O)CCn3cccn3)C[C@H]2NC(C)=O)cc1 measure="cytotoxicity at 10 µM" numeric_readout=7.18
compound="O=C(Cn1cccn1)NCC1CCN(Cc2cc3ccccc3[nH]2)C1 (stereo unspecified)" measure="cytotoxicity at 10 µM" numeric_readout=7.11
compound=O=C(NCCN1CCCCCC1=O)Nc1cccnc1-n1cccn1 measure="cytotoxicity at 10 µM" numeric_readout=-1.73
compound="O=S1(=O)CCC(c2nnc(-c3cnc4onc(C5CCCC5)c4c3)o2)C1 (stereo unspecified)" measure="cytotoxicity at 10 µM" numeric_readout=1.84
compound=CN(Cc1nc2ccsc2c(=O)[nH]1)C[C@@H]1CCCN2CCCC[C@H]12 measure="cytotoxicity at 10 µM" numeric_readout=-7.33
compound=CCOC(=O)[C@@H]1CN2CCNC[C@@H]2[C@H]1c1ccccc1 measure="cytotoxicity at 10 µM" numeric_readout=3.88
compound="c1cnn(-c2ccc(CN3CCCC(Cn4cncn4)C3)cc2)c1 (stereo unspecified)" measure="cytotoxicity at 10 µM" numeric_readout=-2.63
compound=CC(C)N(Cc1cccnc1)C(=O)CSc1ccc(C#N)cc1 measure="cytotoxicity at 10 µM" numeric_readout=3.18
compound=O=C(CN1C=Nc2ccccc2S1(=O)=O)NC1CCCCC1 measure="cytotoxicity at 10 µM" numeric_readout=4.75

* * *

Reported cytotoxicity at 10 µM values follow for various molecules
Assay: Toxicity liver stage against HepG2, at 10uM
Assay type: cell-based
Parameters: test concentration 10 uM, cell line HepG2-A16-CD81EGFP
Conditions: human, HepG2-A16-CD81EGFP cells; read-out: INHIBITION
measure: cytotoxicity at 10 µM (%)

molecule="CC(=O)NCC(=O)N1CCOC2(CCCN(c3ccc(C)nn3)C2)C1 (stereo not given)" result_unit=% numeric_readout=0.876
molecule="O=C(CCCc1nc2ccccc2[nH]1)N1CCCC1c1ccccn1 (stereo not given)" result_unit=% numeric_readout=0.219
molecule="COCCCN1C(=O)CC(N2CCN(c3ccc(F)cc3)CC2)C1=O (stereo not given)" result_unit=% numeric_readout=2.57
molecule=Cn1c(CCNc2nccnc2C#N)nc2cc(Cl)ccc21 result_unit=% numeric_readout=-6
molecule=Cc1ccsc1-c1nccn1CCS(=O)(=O)N1CCCC1 result_unit=% numeric_readout=-3.67
molecule="CC(=O)N(Cc1ncc(C)o1)C1CCN(CCn2cccn2)C1 (stereo not given)" result_unit=% numeric_readout=6.49
molecule=Cc1noc(C)c1CN1CCc2ncc(CN(C)C)n2CC1 result_unit=% numeric_readout=8.46
molecule=O=C(c1ccoc1)N1CCC(NCc2ccccc2Cl)CC1 result_unit=% numeric_readout=3.95
molecule=OCc1ccc(N2CCN(c3ncccn3)CC2)c(F)c1 result_unit=% numeric_readout=-23.8
molecule="CN(Cc1coc(-c2ccccc2)n1)C1CCCN(c2cccnn2)C1 (stereo not given)" result_unit=% numeric_readout=-14
molecule=Cn1ccnc1CN1CCN(Cc2noc(-c3ccccc3)n2)CC1 result_unit=% numeric_readout=1.08
molecule=O=C(CO)N1CC[C@@H](N2CCN(c3ccccc3F)CC2)[C@H](O)C1 result_unit=% numeric_readout=-46
molecule="Cc1nc(C)n(CC2CCCN(c3ccnc(-c4ccccc4)n3)C2)n1 (stereo not given)" result_unit=% numeric_readout=39.4
molecule=Cn1cc(CNCCn2cccn2)c(-c2cccnc2)n1 result_unit=% numeric_readout=-2.34
molecule=Cc1ccsc1C(=O)N1CCc2ncc(CN3CCCC3)n2CC1 result_unit=% numeric_readout=-111
molecule=OCCOc1ccc(NCc2cccc3cccnc23)cn1 result_unit=% numeric_readout=-3.24
molecule="CC(=O)N1CCCC(c2cccc(-n3ccnc3)n2)C1 (stereo not given)" result_unit=% numeric_readout=-9.08
molecule=CCc1cc(N(C)CCCO)n2nccc2n1 result_unit=% numeric_readout=1.77
molecule=Cc1ccc(CN(C)C)cc1NC(=O)C1CC1 result_unit=% numeric_readout=1.32
molecule=NC(=O)Cn1cnc2nc3n(c2c1=O)CCC3 result_unit=% numeric_readout=2.96
molecule=Cn1ccc(C(=O)N2C[C@@H]3CCN(c4cccnc4)C[C@@H]3C2)n1 result_unit=% numeric_readout=-106
molecule=NC(=O)CCn1cc(CNCCCc2csc(N)n2)c2ccccc21 result_unit=% numeric_readout=3.1
molecule=CCOCCCC(=O)NS(=O)(=O)c1ccc(C)s1 result_unit=% numeric_readout=10
molecule=Cc1cc(C)c(CNC(=O)N2CCN(c3ccncc3)CC2)c(=O)[nH]1 result_unit=% numeric_readout=-3.57
molecule=Cn1nc2c(cc1=O)CN(CCc1nc3ccccc3c(=O)[nH]1)CC2 result_unit=% numeric_readout=-10.9

// provenance: ChEMBL document CHEMBL4513216
